src = PubChem BioAssay AID1259407

System: CCRIS mutagenicity, Ames/micronucleus/aberration tests
protocolDescription: CCRIS mutagenicity studies
conditionParameters: Test System: E. COLI; Strain/Indicator: WP2 UVRA (PKM101); Metabolic Activation: NONE; Method: STANDARD PLATE
Active and inactive are the calls of the source. How the calls were made is not given here.
observedProperty: mutagenic call

These recorded examples may help you get a feel for the data.
[[record]]
compound = "ICI"
observedproperty = "mutagenic call"
resultvalue = "active; positive"

[[record]]
compound = "Nc1c[n+](N2CCOCC2)no1"
observedproperty = "mutagenic call"
resultvalue = "inactive; negative"

[[record]]
compound = "CCOC(=O)CCl"
observedproperty = "mutagenic call"
resultvalue = "inactive; negative"

[[record]]
compound = "C=CC=O"
observedproperty = "mutagenic call"
resultvalue = "inactive; negative"

[[record]]
compound = "Nc1ccc(N)cc1"
observedproperty = "mutagenic call"
resultvalue = "inactive; negative"


So, "CNNC" ? Its mutagenic call was active; positive

So, O=C(O)C(Cl)CCl (stereo not drawn) ? Its mutagenic call was inactive; negative

So, "ClCCl" ? Its mutagenic call was inactive; negative

----------
Tested on: CCRIS mutagenicity, Ames/micronucleus/aberration tests
protocolDescription: CCRIS mutagenicity studies
conditionParameters: Test System: Mouse lymphoma; Strain/Indicator: L5178Y (tk+/tk-); Metabolic Activation: None; Method: Suspension/plate
Active and inactive are the calls of the source. The rule behind the calls is not given here.
// one of YES = active, NO = inactive, no free text

[[record]]
compound = "CCCc1cc(=O)oc2c3c(c4c(c12)OC(C)(C)C=C4)O[C@H](C)[C@@H](C)[C@H]3O"
classification = "NO"

[[record]]
compound = "COc1ccc(C=O)cc1"
classification = "NO"

[[record]]
compound = "C[Si]1(C)O[Si](C)(C)O[Si](C)(C)O[Si](C)(C)O1"
classification = "NO"

[[record]]
compound = "Cc1ccc(N=Nc2c(O)ccc3ccccc23)c(C)c1"
classification = "NO"

[[record]]
compound = "CNC(=O)OCc1nc(SC)n(C)c1COC(=O)NC"
classification = "YES"

[[record]]
compound = "O=Cc1ccccc1[N+](=O)[O-]"
classification = "NO"


Field: next compound
Query :: Could you check what this test reported for "FC(Cl)(Cl)Cl" ?
Result :: NO

----------
System: CCRIS mutagenicity, Ames/micronucleus/aberration tests
protocolDescription: CCRIS mutagenicity studies
conditionParameters: Test System: AMES SALMONELLA TYPHIMURIUM; Strain/Indicator: TA1537; Metabolic Activation: HAMSTER, LIVER, S-9, AROCLOR 1254; Method: STANDARD PLATE
Activity calls are given as the source filed them. How the calls were made is not given here.
// one of active, inactive, no free text

[[record]]
compound = "COc1cc2c(c(OC)c1OC)-c1ccc(OC)c(=O)cc1[C@@H](NC(C)=O)CC2"
classification = "inactive"

[[record]]
compound = "O=Cc1ccccc1[N+](=O)[O-]"
classification = "inactive"

[[record]]
compound = "CCCCCCCCCC/C=C/C1CC(=O)OC1=O (centres undefined)"
classification = "inactive"

[[record]]
compound = "C[n+]1cccc(C(=O)[O-])c1"
classification = "inactive"

[[record]]
compound = "CCOCOCC"
classification = "inactive"

[[record]]
compound = "C1CCC2CCCCC2C1 (centres undefined)"
classification = "inactive"


Query :: Could you check what this test reported for CC1=CCC(C(C)(C)O)CC1 (centres undefined) ?
Result :: inactive

Query :: Could you check what this test reported for "ClNc1nc(NCl)nc(NCl)n1" ?
Result :: inactive

Query :: Could you check what this test reported for "C1O[C@@H]1[C@@H]1CO1" ?
Result :: inactive

Query :: Could you check what this test reported for "O=C(O)O" ?
Result :: inactive

Query :: Could you check what this test reported for "Nc1nc2ccc([N+](=O)[O-])cc2s1" ?
Result :: active

Query :: Could you check what this test reported for "NC(=O)c1ccc(N)cc1" ?
Result :: inactive

Query :: Could you check what this test reported for "O=C(O)/C=C/c1ccc(O)c(O)c1" ?
Result :: inactive

Query :: Could you check what this test reported for "Nc1c(Br)cc([N+](=O)[O-])cc1[N+](=O)[O-]" ?
Result :: active

Query :: Could you check what this test reported for "CC(C)=CCC1=C(O)c2ccccc2C(=O)C1=O" ?
Result :: inactive

Query :: Could you check what this test reported for "CCCON=O" ?
Result :: inactive

Query :: Could you check what this test reported for "ON=C1CCCCC1" ?
Result :: inactive

Query :: Could you check what this test reported for "Nc1nc2cc(Cl)c(Cl)cc2s1" ?
Result :: inactive

Query :: Could you check what this test reported for "O=C(O)CN(CCN(CC(=O)O)CC(=O)O)CC(=O)O" ?
Result :: inactive

Query :: Could you check what this test reported for "Cl/C=C/CCl" ?
Result :: inactive

Query :: Could you check what this test reported for "O=C(CCl)c1ccc(Cl)cc1Cl" ?
Result :: inactive

Query :: Could you check what this test reported for "O=[N+]([O-])/C(Br)=C\c1ccccc1" ?
Result :: inactive

Query :: Could you check what this test reported for "[O-]/[N+](=N\O)c1ccccc1" ?
Result :: inactive

Query :: Could you check what this test reported for O=CC(O)C(O)C(O)C(O)COC1OC(COC2OC(CO)C(O)C(O)C2O)C(O)C(O)C1O (centres undefined) ?
Result :: inactive

Query :: Could you check what this test reported for CC(O)CCC(=O)c1ccoc1 (centres undefined) ?
Result :: inactive

Query :: Could you check what this test reported for "Fc1ccccc1-c1ccccc1" ?
Result :: inactive

Query :: Could you check what this test reported for "C/C=N/O" ?
Result :: inactive

Query :: Could you check what this test reported for "Cc1ccc(N)c(S(=O)(=O)O)c1" ?
Result :: inactive

Query :: Could you check what this test reported for "CCCCCCCCCCCC(=O)OCCS(=O)(=O)O" ?
Result :: inactive
